Item-by-item account of MIC
- Test system: Staphylococcus epidermidis
- EXPERIMENTAL PROTOCOL: Antibacterial activity against Staphylococcus epidermidis ATCC 12228 after 20 to 22 hr by agar dilution method
- Format: functional

> print(dat)
                                   molecule  value.measured
1  C=C1CC(Cn2ncc(=O)[nH]c2=O)(c2ccc(-c3ccccc3)cc2)OC1=O (stereo not drawn)     > 100 µg/mL
2  C=C1CC(Cn2ncc(=O)n(CC3(c4ccccc4)CC(=C)C(=O)O3)c2=O)(c2ccccc2)OC1=O (stereo not drawn)     > 100 µg/mL
3  C=C1CC(Cn2ncc(=O)n(CC3(c4ccc(-c5ccccc5)cc4)CC(=C)C(=O)O3)c2=O)(c2ccc(-c3ccccc3)cc2)OC1=O (stereo not drawn)        10 µg/mL
4  C=C1CC(Cn2nc(C)c(=O)[nH]c2=O)(c2ccc(-c3ccccc3)cc2)OC1=O (stereo not drawn)        25 µg/mL
5                      O=c1cn[nH]c(=O)[nH]1     > 100 µg/mL

Given item C=C1CC(Cn2nc(C)c(=O)n(CC3(c4ccc(-c5ccccc5)cc4)CC(=C)C(=O)O3)c2=O)(c2ccc(-c3ccccc3)cc2)OC1=O (stereo not drawn) , the value recorded as its MIC is > 100 µg/mL

Given item C=C1CC(Cn2ncc(=O)[nH]c2=O)(c2ccc(F)cc2)OC1=O (stereo not drawn) , the value recorded as its MIC is > 100 µg/mL

Given item C=C1CC(Cn2ncc(=O)n(CC3(c4ccc(F)cc4)CC(=C)C(=O)O3)c2=O)(c2ccc(F)cc2)OC1=O (stereo not drawn) , the value recorded as its MIC is > 100 µg/mL

###

- System: Proteus vulgaris
- EXPERIMENTAL PROTOCOL: Antibacterial activity against Proteus vulgaris ATCC 13315 after 20 to 22 hr by agar dilution method
- Format: functional
Item-by-item account of MIC

Examples with their reported MIC follow.
> print(dat)
                                   compound  quantity.measured  value.measured
1  C=C1CC(Cn2ncc(=O)n(CC3(c4ccc(F)cc4)CC(=C)C(=O)O3)c2=O)(c2ccc(F)cc2)OC1=O (stereo not drawn)                MIC      > 100 mg/L
2  C=C1CC(Cn2nc(C)c(=O)[nH]c2=O)(c2ccccc2)OC1=O (stereo not drawn)                MIC      > 100 mg/L
3  C=C1CC(Cn2ncc(=O)n(CC3(c4ccc(-c5ccccc5)cc4)CC(=C)C(=O)O3)c2=O)(c2ccc(-c3ccccc3)cc2)OC1=O (stereo not drawn)                MIC         25 mg/L

Given item C=C1CC(Cn2ncc(=O)[nH]c2=O)(c2ccc(-c3ccccc3)cc2)OC1=O (stereo not drawn) , the value recorded as its MIC is 25 mg/L

Given item O=c1cn[nH]c(=O)[nH]1 , the value recorded as its MIC is > 100 mg/L

###

Item-by-item account of MIC
- Tested on: Proteus vulgaris
- EXPERIMENTAL PROTOCOL: Antibacterial activity against Proteus vulgaris ATCC 13315 after 20 to 22 hr by agar dilution method
- Type: functional

Examples with their reported MIC follow.
> print(dat)
                                   compound     target.system  quantity.measured  value.measured
1  C=C1CC(Cn2ncc(=O)[nH]c2=O)(c2ccc(F)cc2)OC1=O (stereo not drawn)  Proteus vulgaris                MIC        50 µg/mL
2  C=C1CC(Cn2ncc(=O)n(CC3(c4ccccc4)CC(=C)C(=O)O3)c2=O)(c2ccccc2)OC1=O (stereo not drawn)  Proteus vulgaris                MIC     > 100 µg/mL
3  C=C1CC(Cn2nc(C)c(=O)n(CC3(c4ccccc4)CC(=C)C(=O)O3)c2=O)(c2ccccc2)OC1=O (stereo not drawn)  Proteus vulgaris                MIC     > 100 µg/mL
4  C=C1CC(Cn2nc(C)c(=O)[nH]c2=O)(c2ccc(-c3ccccc3)cc2)OC1=O (stereo not drawn)  Proteus vulgaris                MIC     > 100 µg/mL
5  C=C1CC(Cn2nc(C)c(=O)n(CC3(c4ccc(-c5ccccc5)cc4)CC(=C)C(=O)O3)c2=O)(c2ccc(-c3ccccc3)cc2)OC1=O (stereo not drawn)  Proteus vulgaris                MIC     > 100 µg/mL

Given item C=C1CC(Cn2nc(C)c(=O)[nH]c2=O)(c2ccc(F)cc2)OC1=O (stereo not drawn) , the value recorded as its MIC is > 100 µg/mL

Given item C=C1CC(Cn2ncc(=O)[nH]c2=O)(c2ccccc2)OC1=O (stereo not drawn) , the value recorded as its MIC is 5 µg/mL

Given item C=C1CC(Cn2nc(C)c(=O)n(CC3(c4ccc(F)cc4)CC(=C)C(=O)O3)c2=O)(c2ccc(F)cc2)OC1=O (stereo not drawn) , the value recorded as its MIC is > 100 µg/mL
